target: Dual specificity mitogen-activated protein kinase kinase 1 (Homo sapiens); experiment: LANCE Ultra Assay: The LANCE Ultra assay kit was purchased from PerkinElmer. The ULight-MBP peptide, Europium labeled Antibody and LANCE Detection buffer were purchased from PerkinElmer. The APT and dimethylsulfoxide were purchased from Sigma-Aldrich. The 5× Kinase buffer were purchased from Invitrogen. […] A Mek1 kinase assay (LANCE, PerkinElmer) was developed for supporting compound profiling and lead optimization. […] Then the phosphorylated Erk1 was able to phosphorylate ULight-MBP peptide (PerkinElmer). The phosphorylated peptide was detected by Europium-anti-phospho-MBP (PerkinElmer). […] After quenching the reaction with […], 2 nM Europium-anti-phospho-MBP was added to the reaction mixture and incubated for 60 min, followed by a detection using EnVision Multilabel Plate Reader (PerkinElmer).
Sequence (Q02750 whole entry): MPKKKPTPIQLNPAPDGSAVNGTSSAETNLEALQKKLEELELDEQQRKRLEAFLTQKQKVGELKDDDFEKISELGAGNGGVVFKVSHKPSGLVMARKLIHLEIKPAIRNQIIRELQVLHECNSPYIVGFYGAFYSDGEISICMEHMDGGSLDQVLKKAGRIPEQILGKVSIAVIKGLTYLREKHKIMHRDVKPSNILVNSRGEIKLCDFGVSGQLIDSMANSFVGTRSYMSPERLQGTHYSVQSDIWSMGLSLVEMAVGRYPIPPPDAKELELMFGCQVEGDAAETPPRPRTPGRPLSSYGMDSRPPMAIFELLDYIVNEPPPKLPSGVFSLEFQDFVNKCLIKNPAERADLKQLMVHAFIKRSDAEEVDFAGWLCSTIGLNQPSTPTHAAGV
value-kind: IC50

Request: Item under review: Cn1c(Nc2ccc(I)cc2F)c(C(=O)NOCCO)c2c(c1=O)CC(C)(C)C2 . Reported IC50?
Response: < 500 nM

Value source: ChEMBL document CHEMBL5726111
